Study system: T1, M3
T1 construct: also called PD1 mutant M3
Experiment description: scFv-phage ELISA
Parameter OD490: see the listing below.
Give a plain numeric answer without units written out.

PD1-32A6 (antibody, V domains shown, scFv-phage in the screening ELISA; later whole IgG) VH: QVQLVQSGAEVKKPGSSVKVSCKASGDTFTRNAVSWVRQAPGEGLEWMADIIPIFGSANYAQKFQGRLTLTADVSTSTAYMELSSLRSEDTAVYYCARTIEGAFDIWGQGTMVTVSS VL: DIQMTQSPSSVSASVGDRVTITCRASQGIVSWLAWYQQKPGKAPRLLIYRASDLETGVPSRFSGSGSGTDFTLTISSLQPEDVATYYCQQADSFPLTFGGGTKVEIK :: 3

Any idea what its OD490 is? The binder is PD1-45F1 (antibody, V domains shown, scFv-phage in the screening ELISA; later whole IgG) VH: QVQLVQSGAEVKKPGASVKLSCKASGYTFNSYYVHWVRQAPGQGLEWMGIINPSDGSATYAQKFQGRVTMTSDTSTSSVYMELSSLRSEDTAVYYCARDGNYYDSRGYYYDTFDMWGQGTLITVSS VL: SYELTQDPAVSVALGQTVRITCQGDSLRTYYASWYQQKPGQAPILVIYGKNNRPSGIPDRFSGSSSGNTASLTITAAQAEDEADYYCNSRDSSGKSLVFGGGTKLTVL 3.8

Consider the binder shown here: PD1-29H3 (antibody, V domains shown, scFv-phage in the screening ELISA; later whole IgG) VH: QMQLVESGGNLVQPGRSLRLSCAASGFTFDDYGMHWVRQAPGKGLEWVSSISWNSGTIGYADSVKGRFTISRDNAKNSLYLQMNSLRSEDTAVYYCARLLHQMNEHEFMDVWGQGTTVTVSS VL: QLVLTQPSSMSEAPGQRVTISCSGGTSNIGTNAVNWYQQPPGKAPTLLIYYDDRLTSGVSDRFSGSKSGTSASLAISRLQSEDEADYYCAAWDDSLNGWVFGGGTKLTVL What is its recorded OD490? 2.3

Name the recorded OD490 for PD1-45D6 (antibody, V domains shown, scFv-phage in the screening ELISA; whole IgG in the other assays) VH: QVQLVESGGGVVQPGRSLRLSCAASGFTFSSYAMHWVRQVPGKGLEWVAVISYDGNDKYYADSVKGRFTISRDNSKNTLYLQMNSLRAEDTAVYYCVPTTFEYWGQGSQVTVSS VL: DIVMTQTPLSLPVTPGEAASISCRSSQSLLDSDDGKTYLDWYLQKPGQSPQLLIYTLSYRASGVPDRFSGSGSGTEFNLRISRVEAEDVGIYYCMQRVEFPFTFGQGTKLDIK . 3.8

Could you share which OD490 value was measured for PD1-41C9 (antibody, V domains shown, scFv-phage in the screening ELISA; whole IgG in the other assays) VH: QMQLVESGGGVVQPGRSLRLSCAASGFTFSSYAMHWVRQAPGKGLEWVAVISYDGSNKYYADSVKGRFTISRDNSKNTLYLQMNRLRSEDTAVYYCTTTTFDSWGQGTLITVSS VL: DIVMTQTPLSLPVTPGEAASISCRSSQSLLDSEDGNTYLDWYLQKPGQSPQLLIYTLSHRASGVPDRFSGSGSGTDFTLKISRVAAEDVGLYYCLQRMGFPYTFGQGTKLDIK ? 2.3
